system.name: UniProt:Q7ZJM1
Sequence (Q7ZJM1 whole entry): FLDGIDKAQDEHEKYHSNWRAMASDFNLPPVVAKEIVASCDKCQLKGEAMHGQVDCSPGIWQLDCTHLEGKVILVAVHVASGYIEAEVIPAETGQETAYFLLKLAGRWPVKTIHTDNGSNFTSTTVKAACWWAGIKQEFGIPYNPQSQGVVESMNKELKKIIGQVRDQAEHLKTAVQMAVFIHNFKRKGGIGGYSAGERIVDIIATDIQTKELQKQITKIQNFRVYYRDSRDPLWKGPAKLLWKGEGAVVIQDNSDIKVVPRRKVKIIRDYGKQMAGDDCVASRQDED
test.summary: Inhibition of Human immunodeficiency virus 1 integrase strand transfer activity after 30 mins by polyacrylamide gel electrophoresis
parameter: pIC50
// returns pIC50 (minus log10 of molar concentration), number only

Query: Look up pIC50 for this compound: CC(C)(C)c1nc(C(=O)NCc2ccc(F)cc2)c(O)c(=O)n1CCCNC(=O)C1CC1
Result: 5.52

Query: Look up pIC50 for this compound: CCS(=O)(=O)NCCCn1c(C(C)(C)C)nc(C(=O)NCc2ccc(F)cc2)c(O)c1=O
Result: 5.15

Query: Look up pIC50 for this compound: CC(C)(C)c1nc(C(=O)NCc2ccc(F)cc2)c(O)c(=O)n1CCCNC(=O)c1ccccc1
Result: 4.89

Query: Look up pIC50 for this compound: CC(C)(C)c1nc(O)c(O)c(C(=O)NCc2ccc(F)cc2)n1
Result: 5.70

Query: Look up pIC50 for this compound: CC(=O)NCCCn1c(C(C)(C)C)nc(C(=O)NCc2ccc(F)cc2)c(O)c1=O
Result: 5.70

Query: Look up pIC50 for this compound: CCCC(=O)NCCCn1c(C(C)(C)C)nc(C(=O)NCc2ccc(F)cc2)c(O)c1=O
Result: 4.70

Query: Look up pIC50 for this compound: CC(C)(C)c1nc(C(=O)NCc2ccc(F)cc2)c(O)c(=O)n1CCCNS(=O)(=O)c1ccccc1
Result: 4.70

Query: Look up pIC50 for this compound: CC(C)(C)c1nc(C(=O)NCc2ccc(F)cc2)c(O)c(=O)n1CCCNC(=O)c1cccs1
Result: 4.85
